test system: M. tuberculosis H37Rv growth inhibition, 7H9 media; test: M. tuberculosis growth inhibition, HTS (AID 449762); conditions: measured here: IC90 growth inhibition;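 also: bacterial growth assessed after seven days of incubation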
Inconclusive results are not listed.
ASSAY_ENDPOINT: IC90 (µM)
Give the value in µM but do not write µM after it.

The compound identified as `COc1ccc(N/N=C(/N=Nc2nc(C)cc(=O)[nH]2)c2ccccc2)cc1` registered its IC90 at 6.69

The compound identified as `Nc1c2c(nc3sc4c(c13)CCCCC4)CCCC2` registered its IC90 at 13.8

The compound identified as `COc1ccc(SN=C2C(C)=CC(=O)C=C2C)cc1` registered its IC90 at 13.5

The compound identified as `O=c1cc(O)c2sc3nc(-c4cccnc4)cc(C(F)(F)F)c3c2[nH]1` registered its IC90 at 35.6

The compound identified as `Cc1ccc(C)c(N/C(N)=N/c2nc(C)cc(C)n2)c1` registered its IC90 at 6.72

The compound identified as CSCCC(=O)N1CCCC(CNC(=O)c2ccc(-c3ccccc3)cc2)C1 (configuration not stated) registered its IC90 at 87.8

The compound identified as `NC1=NC[C@H](Cc2ccc(O)cc2)N1CCc1cccc2ccccc12` registered its IC90 at 24.1

The compound identified as `Cc1cc(/C=C2\SC(=Nc3ccc(F)cc3)NC2=O)c(C)n1-c1ccc(S(N)(=O)=O)cc1` registered its IC90 at 25.5

The compound identified as COc1ccc(-c2cn(Cc3ccc(C(=O)NCc4ccc(C)cc4)cc3)c(C(C)N)n2)cc1 (configuration not stated) registered its IC90 at 53.2

The compound identified as `CCc1cc(/C(Cc2ccccn2)=N\Nc2ccccc2)c(O)cc1O` registered its IC90 at 77.4

The compound identified as `CCOC(=O)N1CCN(C(=O)CSc2nnc(-c3ccc(Cl)s3)o2)CC1` registered its IC90 at 34.1

The compound identified as CN(C)c1ccc(O)c2c1CC1CC3[C@@H](N(C)C)C(=O)C(C(N)=O)C(=O)[C@]3(O)C(=O)C1C2=O (some centres not stated) registered its IC90 at 3.62

The compound identified as `Cc1ccc(NC(=O)Cn2ccsc2=N)c([N+](=O)[O-])c1` registered its IC90 at 12.7

The compound identified as `Cc1ccc(C(=O)/C=C/C(=O)c2ccc(C)cc2)cc1` registered its IC90 at 7.63

The compound identified as `CCCNc1nc(-c2cc(C(=O)Nc3ccccc3)on2)cc(C(C)C)n1` registered its IC90 at 59.3

The compound identified as `C/C(=N/NC(=O)c1ccccn1)c1c[nH]c2ccccc12` registered its IC90 at 11.8

The compound identified as `CC/C(C)=N/NC(=S)NCc1ccco1` registered its IC90 at 53.8
